These entries and their values trace back to ChEMBL document CHEMBL4706543.

Catalogue of CLH values
- procedure-details: Clearance in rat hepatocytes assessed per gram tissue
- Type: ADME, cell-based, Hepatocyte
State just the number; it will be interpreted in mL/min/g.

Cc1cccc([C@H](CC(=O)O)C(=O)N2CC[C@@H](CCc3ccc4c(n3)NCCC4)C2)c1 : 3.2
N#Cc1cccc([C@H](CC(=O)O)C(=O)N2CC[C@@H](CCc3ccc4c(n3)NCCC4)C2)c1 : 1.4

# ---- query molecule ----
Query: // query CLH value for entry `O=C(O)C[C@H](C(=O)N1CC[C@@H](CCc2ccc3c(n2)NCCC3)C1)c1cccc(C(F)(F)F)c1`
Reply: 14.3

* * *

- measurement-target: Integrin alpha-V/beta-3 (Homo sapiens, UniProt P05106+P06756)
- Sequence (P05106 27-788 limits assumed): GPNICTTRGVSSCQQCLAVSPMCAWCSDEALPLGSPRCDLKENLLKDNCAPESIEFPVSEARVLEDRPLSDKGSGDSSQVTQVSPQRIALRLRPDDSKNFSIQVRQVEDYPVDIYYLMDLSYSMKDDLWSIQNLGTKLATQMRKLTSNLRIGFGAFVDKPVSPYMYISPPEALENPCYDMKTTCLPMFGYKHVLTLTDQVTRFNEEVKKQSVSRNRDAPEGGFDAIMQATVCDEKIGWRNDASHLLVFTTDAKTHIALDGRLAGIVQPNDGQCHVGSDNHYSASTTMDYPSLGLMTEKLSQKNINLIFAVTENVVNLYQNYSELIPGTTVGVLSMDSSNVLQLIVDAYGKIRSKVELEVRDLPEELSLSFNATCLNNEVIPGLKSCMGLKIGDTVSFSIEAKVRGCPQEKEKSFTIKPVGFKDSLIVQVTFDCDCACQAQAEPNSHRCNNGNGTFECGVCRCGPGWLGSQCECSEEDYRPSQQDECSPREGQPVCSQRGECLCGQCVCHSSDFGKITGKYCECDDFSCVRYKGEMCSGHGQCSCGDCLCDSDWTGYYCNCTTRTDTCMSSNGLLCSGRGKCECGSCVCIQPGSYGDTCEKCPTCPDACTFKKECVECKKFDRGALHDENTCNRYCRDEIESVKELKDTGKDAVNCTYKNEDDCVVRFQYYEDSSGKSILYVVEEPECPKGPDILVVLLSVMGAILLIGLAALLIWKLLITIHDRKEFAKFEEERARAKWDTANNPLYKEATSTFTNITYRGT
- Sequence (P06756 31-889 limits assumed): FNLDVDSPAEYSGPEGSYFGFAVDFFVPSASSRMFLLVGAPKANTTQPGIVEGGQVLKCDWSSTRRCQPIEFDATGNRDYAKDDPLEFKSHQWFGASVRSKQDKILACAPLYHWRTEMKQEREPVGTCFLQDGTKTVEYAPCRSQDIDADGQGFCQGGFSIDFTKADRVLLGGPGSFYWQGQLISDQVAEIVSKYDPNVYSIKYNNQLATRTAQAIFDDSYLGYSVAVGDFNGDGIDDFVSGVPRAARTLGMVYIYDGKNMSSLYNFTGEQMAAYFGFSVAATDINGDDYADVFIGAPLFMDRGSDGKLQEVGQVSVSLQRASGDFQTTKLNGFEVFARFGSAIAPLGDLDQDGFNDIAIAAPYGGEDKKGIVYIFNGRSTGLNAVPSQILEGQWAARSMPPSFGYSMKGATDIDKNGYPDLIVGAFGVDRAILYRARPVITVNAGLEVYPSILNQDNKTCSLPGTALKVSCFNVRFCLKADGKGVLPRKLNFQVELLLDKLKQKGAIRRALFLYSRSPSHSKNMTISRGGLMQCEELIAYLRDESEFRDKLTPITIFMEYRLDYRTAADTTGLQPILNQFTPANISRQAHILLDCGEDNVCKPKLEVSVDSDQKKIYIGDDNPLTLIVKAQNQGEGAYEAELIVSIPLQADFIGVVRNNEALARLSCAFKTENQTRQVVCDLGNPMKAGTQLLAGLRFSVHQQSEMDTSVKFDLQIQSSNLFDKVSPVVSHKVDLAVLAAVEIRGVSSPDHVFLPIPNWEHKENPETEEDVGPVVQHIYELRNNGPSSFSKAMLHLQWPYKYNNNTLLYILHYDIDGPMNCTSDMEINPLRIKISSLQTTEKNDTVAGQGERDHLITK
- Sequence (P06756 891-1048 limits assumed): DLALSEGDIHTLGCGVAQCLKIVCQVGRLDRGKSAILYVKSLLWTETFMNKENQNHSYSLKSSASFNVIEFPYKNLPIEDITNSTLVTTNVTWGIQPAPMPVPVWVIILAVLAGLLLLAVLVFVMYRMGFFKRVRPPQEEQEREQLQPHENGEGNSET
- procedure-details: Inhibition of integrin alphavbeta3 (unknown origin) by fluorescence polarization assay
observable: IC50
Form field: result (number plus unit)

Example compounds with recorded IC50:
O=C(O)C[C@H](C(=O)N1CC[C@@H](CCc2ccc3c(n2)NCCC3)C1)c1cccc(C2CC2)c1 : 6310 nM
O=C(O)C[C@H](C(=O)N1CC[C@@H](CCc2ccc3c(n2)NCCC3)C1)c1ccsc1 : 501 nM
CNc1cccc(CCOc2ccc3c(ccn3CCC(=O)O)c2)n1 : 39.8 nM
O=C(O)C[C@H](C(=O)N1CC[C@@H](CCc2ccc3c(n2)NCCC3)C1)c1ccc(Br)s1 : 200 nM
O=C(O)C[C@H](C(=O)N1CC[C@@H](CCc2ccc3c(n2)NCCC3)C1)c1cccc(O)c1 : 158 nM

Query: // query IC50 value for entry `N#Cc1cccc([C@H](CC(=O)O)C(=O)N2CC[C@@H](CCc3ccc4c(n3)NCCC4)C2)c1`
Reply: 501 nM

* * *

- measurement-target: Integrin alpha-V/beta-5 (Homo sapiens, UniProt P06756+P18084)
- Sequence (P06756 31-889 limits assumed): as the sequence (P06756 31-889 limits assumed) above
- Sequence (P06756 891-1048 limits assumed): as the sequence (P06756 891-1048 limits assumed) above
- Sequence (P18084 24-799 limits assumed): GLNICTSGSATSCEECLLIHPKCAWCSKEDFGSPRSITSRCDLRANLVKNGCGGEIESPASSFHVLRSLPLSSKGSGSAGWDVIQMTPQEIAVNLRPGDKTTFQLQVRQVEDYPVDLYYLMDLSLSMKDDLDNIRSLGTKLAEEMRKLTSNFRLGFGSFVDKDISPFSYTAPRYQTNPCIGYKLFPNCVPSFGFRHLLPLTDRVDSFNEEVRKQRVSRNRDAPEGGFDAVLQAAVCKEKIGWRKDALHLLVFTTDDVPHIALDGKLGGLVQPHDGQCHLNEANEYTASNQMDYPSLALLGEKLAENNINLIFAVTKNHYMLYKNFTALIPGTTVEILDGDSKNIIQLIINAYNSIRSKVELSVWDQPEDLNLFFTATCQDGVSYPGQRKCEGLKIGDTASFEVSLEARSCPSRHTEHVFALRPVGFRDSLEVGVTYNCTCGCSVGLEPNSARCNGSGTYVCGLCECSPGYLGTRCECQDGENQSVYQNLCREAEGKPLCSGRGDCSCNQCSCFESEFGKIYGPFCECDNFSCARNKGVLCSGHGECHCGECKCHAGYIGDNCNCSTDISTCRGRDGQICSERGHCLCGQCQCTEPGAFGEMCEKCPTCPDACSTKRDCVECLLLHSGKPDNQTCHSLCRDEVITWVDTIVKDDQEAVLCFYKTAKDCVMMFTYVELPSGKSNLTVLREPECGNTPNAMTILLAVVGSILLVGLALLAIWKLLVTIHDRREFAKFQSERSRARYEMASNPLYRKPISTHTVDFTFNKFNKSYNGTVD
- procedure-details: Inhibition of integrin alphavbeta5 (unknown origin) by fluorescence polarization assay
Catalogue of log10 of IC50 values
A value of 2 here means IC50 of 100 in nM, since values are log10.

Example compounds with recorded log10 of IC50:
O=C(O)C[C@H](C(=O)N1CC[C@@H](CCc2ccc3c(n2)NCCC3)C1)c1ccsc1 : 0.60
O=C(O)C[C@H](C(=O)N1CC[C@@H](CCc2ccc3c(n2)NCCC3)C1)c1ccc(Br)s1 : 1.00
O=C(O)C[C@H](C(=O)N1CCCC(CCc2ccc3c(n2)NCCC3)C1)c1ccccc1 (some centres not stated) : 2.70
O=C(O)CCn1ccc2cc(OCCCNc3ccccn3)ccc21 : 1.60
Cc1cccc([C@H](CC(=O)O)C(=O)N2CC[C@@H](CCc3ccc4c(n3)NCCC4)C2)c1 : 0.60

Query: // query log10 of IC50 value for entry `Cc1ccc([C@H](CC(=O)O)C(=O)N2CC[C@@H](CCc3ccc4c(n3)NCCC4)C2)s1`
Reply: 0.80

Query: // query log10 of IC50 value for entry `O=C(O)C[C@H](C(=O)N1CC(CCc2ccc3c(n2)NCCC3)C1)c1ccccc1`
Reply: 1.40

Query: // query log10 of IC50 value for entry `C=C(C)c1cccc([C@H](CC(=O)O)C(=O)N2CC[C@@H](CCc3ccc4c(n3)NCCC4)C2)c1`
Reply: 0.70

Query: // query log10 of IC50 value for entry `O=C(O)C[C@H](C(=O)N1CC[C@@H](CCc2ccc3c(n2)NCCC3)C1)c1cccc(C2CC2)c1`
Reply: 0.90

Query: // query log10 of IC50 value for entry `O=C(O)C[C@H](C(=O)N1CC[C@@H](CCc2ccc3c(n2)NCCC3)C1)c1cccc(N2CCNCC2)c1`
Reply: 1.20

Query: // query log10 of IC50 value for entry `N#Cc1cccc([C@H](CC(=O)O)C(=O)N2CC[C@@H](CCc3ccc4c(n3)NCCC4)C2)c1`
Reply: 0.50

Query: // query log10 of IC50 value for entry `O=C(O)C[C@@H](C(=O)N1CC[C@@H](CCc2ccc3c(n2)NCCC3)C1)c1cccc(Br)c1`
Reply: 3.30

Query: // query log10 of IC50 value for entry `O=C(O)C[C@H](C(=O)N1CC[C@@H](CCc2ccc3c(n2)NCCC3)C1)c1ccc(Br)cc1`
Reply: 0.80

Query: // query log10 of IC50 value for entry `CNc1cccc(CCOc2ccc3c(ccn3CCC(=O)O)c2)n1`
Reply: 1.00

Query: // query log10 of IC50 value for entry `O=C(O)C[C@H](C(=O)N1CC[C@@H](CCc2ccc3c(n2)NCCC3)C1)c1cc(Br)cc(Br)c1`
Reply: 0.70

Query: // query log10 of IC50 value for entry `O=C(O)C[C@H](C(=O)N1CC[C@@H](CCc2ccc3c(n2)NCCC3)C1)c1cccc(Cl)c1`
Reply: 0.40

Query: // query log10 of IC50 value for entry `O=C(O)C[C@H](C(=O)N1CC[C@@H](CCc2ccc3c(n2)NCCC3)C1)c1cccc(O)c1`
Reply: 0.60
